# protein stability index per entry
B1: SPATS1 (parent)
chain: GRKKYDIDPRNGIPKLTPGDNPYM

- Variants of: B1
- assay_summary: protein stability index of a GFP-peptide fusion (GPS, HEK-293T) (PSI 1-6); higher = more stable;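 note: lentivirally expressed fusions sorted by FACS into six bins by GFP to DsRed ratio, PSI derived from sequencing read proportions per bin multiplied by bin number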
- conditions_used: c terminus: a fixed tail appended
Give the figure only, with no unit attached.

Please report protein stability index for the following variant: GRKKYDDDPRNGIPKLTPGDNPYM [I7D]
4.21

Please report protein stability index for the following variant: GRKKYDIDPRNGIPKLTPGDNPYK [M24K]
4.03

Please report protein stability index for the following variant: GRKKYDIDPRNGIPKLTNGDNPYM [P18N]
4.09

Please report protein stability index for the following variant: GRKKYDIDYRNGIPKLTPGDNPYM [P9Y]
2.99

Please report protein stability index for the following variant: GRKKYDIDPRNGIPKLAPGDNPYM [T17A]
3.58

Please report protein stability index for the following variant: GRSKYDIDPRNGIPKLTPGDNPYM [K3S]
3.25

Numbers sourced from the supplement of paper PMC10567573.
